# Tested on: 293T cells
# test: Fluorescent detection of Fluc-mRNA (cell transfection efficiency of LNP formulations)
# Format: cell-based
# run-conditions: RLU of YK-101 / RLU of named substance
Task for the reader: assign each of the following compounds its reported Multiples (YK-101).

Worked cases, answers included:
{"columns": ["compound", "system", "measurement-kind", "meas-value"],
 "data": [
  ["CCCCCCCCCCOC(=O)CCCN(CCO)CCCCCC(=O)OCC(CCCCCCCC)CCCCCCCC [YK-009, reference compound]", "293T cells", "Multiples (YK-101)", 4.01],
  ["CCCCCCCCCCCOC(=O)CCCCCN(CCO)CCCCCCCC(=O)OC(CCCCCCCC)CCCCCCCC [SM-102, reference compound]", "293T cells", "Multiples (YK-101)", 13.25],
  ["CCCCCCCCC(CCCCCCCC)OC(=O)CCCCCCCN(CCO)CCCCCCCC(=O)OCCC(CCCCCC)CCCCCC [Compound 21, reference compound]", "293T cells", "Multiples (YK-101)", 14.64],
  ["CCCCCCCCC(CCCCCC)C(=O)OCCCCCCN(CCCCO)CCCCCCOC(=O)C(CCCCCC)CCCCCCCC (stereo not shown) [ALC-0315, reference compound]", "293T cells", "Multiples (YK-101)", 9.89],
  ["CCCCCCCCCCOC(=O)CCCN(CCCO)CCCCCC(=O)OCCC(CCCCCC)CCCCCC", "293T cells", "Multiples (YK-101)", 13.89],
  ["CCCCCCCCCCOC(=O)CCCN(CCCCCC(=O)OCCC(CCCCCC)CCCCCC)CC(O)CO (stereo not shown)", "293T cells", "Multiples (YK-101)", 14.33],
  ["CCCCCCCCCCOC(=O)CCCN(CCO)CCCCCCOC(=O)CC(CCCCCC)CCCCCC", "293T cells", "Multiples (YK-101)", 12.76],
  ["CCCCCCCCCCOC(=O)CCCN(CCCCCC(=O)OCCC(CCCCCC)CCCCCC)C[C@@H](O)CO", "293T cells", "Multiples (YK-101)", 14.25],
  ["CCCCCCCCCCCOC(=O)CCCN(CCO)CCCCCCC(=O)OCCC(CCCCCC)CCCCCC", "293T cells", "Multiples (YK-101)", 0.82],
  ["CCCCCCCCCCOC(=O)CCCCCN(CCO)CCCCCC(=O)OCCC(CCCCCC)CCCCCC", "293T cells", "Multiples (YK-101)", 8.79]
]}

For each of the items listed, what is its Multiples (YK-101)?
1. CCCCCCCCCCOC(=O)CCCN(CCCO)CCCCCC(=O)OCC(CCCCCCCC)CCCCCCCC
2. CCCCCCCCCCOC(=O)CCCN(CCO)CCCCCC(=O)OCCC(CCCCCC)CCCCCC
3. CCCCCCCCCCOC(=O)CCCN(CCCCCC(=O)OCCC(CCCCCC)CCCCCC)C[C@H](C)O
4. CCCCCCCCCCOC(=O)CCCN(CCCCCC(=O)OCCC(CCCCCC)CCCCCC)C1CCCC1O (stereo not shown)
5. CCCCCCCCCC(=O)OCCCCN(CCO)CCCCCC(=O)OCC(CCCCCCCC)CCCCCCCC

0.91
1.00
29.23
14.49
12.49

Multiples (YK-101) reported for this compound "CCCCCCCCCCOC(=O)CCCN(CCCCCC(=O)OCCC(CCCCCC)CCCCCC)C[C@H](O)CO" : 15.39
